- Tested on: DU-145 prostate
- PROTOCOL_SUMMARY: NCI tumour cell line growth inhibition, 48 h
MEASURED_PARAMETER: TGI

Return TGI (reported value) for this compound: COC(=O)/C=C(\S/C(=C(/c1ccccc1)n1cc(C(=O)OC)c(C(=O)OC)n1)c1ccccc1)C(=O)OC
29.1 µM

Return TGI (reported value) for this compound: CN(C)c1ccc(N=C(C#N)c2nc(N)nc(N3CCOCC3)n2)cc1
> 100 µM

Return TGI (reported value) for this compound: CCOC(=O)c1cc(NC(=O)c2ccccc2)c(=O)n2c(cc3c(Cl)cccc32)c1O
> 100 µM

Return TGI (reported value) for this compound: C=C1C(=O)OC2C3C(=C)[C@@H](OC(C)=O)CC3C(C)=CC(OC(=O)C(C)(O)C(C)OC(C)=O)[C@@H]12 (stereo partly drawn)
30.3 µM

Return TGI (reported value) for this compound: Nc1cccc2cc(S(=O)(=O)Nc3ccc(C(=O)O)cc3)ccc12
> 100 µM

Return TGI (reported value) for this compound: Oc1ccc(-c2nc(-c3ccc(F)cc3)c(-c3ccncc3)[nH]2)cc1
> 100 µM

Return TGI (reported value) for this compound: Nc1nccc(C#Cc2cncnc2Nc2ccc(OCc3cccc(F)c3)c(Cl)c2)n1
7.81 µM

Return TGI (reported value) for this compound: C[C@H]1ON2CCC[C@@H]2[C@@H]1C(=O)N1C2CC3CCC2(CS1(=O)=O)C3(C)C (stereo partly drawn)
> 100 µM

Return TGI (reported value) for this compound: COc1ccc(C2=NN(c3ccc(S(N)(=O)=O)cc3)C(c3ccc(Cl)cc3)C2)c(O)c1 (stereo not drawn)
20.7 µM

Return TGI (reported value) for this compound: O=C(CN1c2ccccc2Sc2ccccc21)n1cnc2ccccc21
> 100 µM

Return TGI (reported value) for this compound: N#Cc1c(-c2ccccc2)cc(Nc2ccc(F)cc2)n2c1nc1ccccc12
> 100 µM

Return TGI (reported value) for this compound: CCOC(=O)/C(C#N)=N\Nc1ccc(-n2c(C)nc3ccc(Br)cc3c2=O)cc1
> 100 µM

Return TGI (reported value) for this compound: COc1ccc([N+](=O)[O-])cc1[I+]c1cc([N+](=O)[O-])ccc1OC
> 100 µM

Return TGI (reported value) for this compound: Cn1cc(-c2csc(-c3cn(C)c4ncccc34)n2)c2ccccc21
23.5 µM

Return TGI (reported value) for this compound: CCC/C(Cl)=N/OC(=O)Nc1cccc(F)c1
31.6 µM

Return TGI (reported value) for this compound: Cc1c(O)c(OC2OC(CO)C(O)C(O)C2O)cc2c1CC[C@@H]1C2(C)C(=O)C[C@]2(C)[C@@H]([C@@](C)(O)C(O)CCC(C)(C)O)[C@H](O)C[C@@]12C (stereo partly drawn)
> 100 µM

Return TGI (reported value) for this compound: c1ccc2c(c1)SCCCSCCCS2
> 100 µM

Return TGI (reported value) for this compound: O=C1c2cc([N+](=O)[O-])cnc2S(=O)(=O)N1c1ccc(Oc2ccccc2)cc1
> 100 µM

src = PubChem BioAssay (NCI)
